# maps each entry to its remaining activity at 10 µM
# Experimental Target: HIV reverse transcriptase (Human immunodeficiency virus type 1 group M subtype B, UniProt P03366)
# Measurement Description: Reverse transcriptase scintillation proximity assay (Example 4, Table 2)
# Assay type: biochemical
# Test Conditions: 0.05 h, 10 μM inhibitor; relative to dimethyl sulfoxide = 100%; read-out: % RT activity remaining at 10 μM

Guide cases for remaining activity at 10 µM, answers given:
- Molecule: "CC(NC(=O)Nc1ccc2c(O)cc(S(=O)(=O)O)cc2c1)c1ccc(F)cc1 (stereo not shown)"
  Observed Property: "remaining activity at 10 µM"
  Result: "88%"
- Molecule: "O=C(O)CC(C(=O)O)c1ccc(N=Nc2c(S(=O)(=O)O)cc3cc(Nc4c(Nc5ccc6c(O)c(N=Nc7ccc(C(CC(=O)O)C(=O)O)cc7)c(S(=O)(=O)O)cc6c5)c(=O)c4=O)ccc3c2O)cc1 (stereo not shown)"
  Observed Property: "remaining activity at 10 µM"
  Result: "0.3%"
- Molecule: "O=C(O)c1cccc(N=Nc2c(S(=O)(=O)O)cc3cc(NC(=O)c4cc(O)cc(C(=O)Nc5ccc6c(O)c(N=Nc7cccc(C(=O)O)c7)c(S(=O)(=O)O)cc6c5)n4)ccc3c2O)c1"
  Observed Property: "remaining activity at 10 µM"
  Result: "0.6%"
- Molecule: "Cc1cc(C(=O)O)ccc1N=Nc1c(S(=O)(=O)O)cc2cc(NC(=O)c3ccc(C(=O)Nc4ccc5c(O)c(N=Nc6ccc(C(=O)O)cc6C)c(S(=O)(=O)O)cc5c4)cc3)ccc2c1O"
  Observed Property: "remaining activity at 10 µM"
  Result: "0.5%"
- Molecule: "O=C(Nc1ccc2c(O)c(N=Nc3ccc(Cl)cc3)c(S(=O)(=O)O)cc2c1)c1ccc(C(=O)Nc2ccc3c(O)c(N=Nc4ccc(Cl)cc4)c(S(=O)(=O)O)cc3c2)cc1"
  Observed Property: "remaining activity at 10 µM"
  Result: "43%"

[ask] Quick one: remaining activity at 10 µM of O=C1c2ccccc2C(=O)N1c1ccc2c(O)cc(S(=O)(=O)O)cc2c1 ?
[reply] 100%

[ask] Please report the recorded remaining activity at 10 µM for COc1cc(C(=O)O)ccc1N=Nc1c(S(=O)(=O)O)cc2cc(NC(=O)c3cc(=O)cc(C(=O)Nc4ccc5c(O)c(N=Nc6ccc(C(=O)O)cc6OC)c(S(=O)(=O)O)cc5c4)o3)ccc2c1O .
[reply] 0.34%

[ask] Please report the recorded remaining activity at 10 µM for O=C(O)CCC(NC(=O)c1ccc(N=Nc2c(S(=O)(=O)O)cc3cc(NC(=O)Nc4ccc5c(O)c(N=Nc6ccc(C(=O)NC(CCC(=O)O)C(=O)O)cc6)c(S(=O)(=O)O)cc5c4)ccc3c2O)cc1)C(=O)O (stereo not shown) .
[reply] 0.6%

###

# Experimental Target: HIV integrase (Human immunodeficiency virus type 1 group M subtype B)
# Measurement Description: biochemical
# Test Conditions: read-out: Inhibition of strand transfer (IC50)
pIC50: −log10 of the molar value.
Condition met means recorded pIC50 is 6 or above; Condition not met means it is below 6.

Below are worked cases with known answers.
- Test Smiles: "CCOC(=O)c1c[nH]nc1N=Nc1c(S(=O)(=O)O)cc2cc(NC(=O)Nc3ccc4c(O)c(N=Nc5n[nH]cc5C(=O)OCC)c(S(=O)(=O)O)cc4c3)ccc2c1O"
  Experimental Target: "HIV integrase (Human immunodeficiency virus type 1 group M subtype B)"
  Category: "Condition not met"
- Test Smiles: "O=C(Nc1ccc2c(O)c(N=Nc3cccc(C(=O)O)c3)c(S(=O)(=O)O)cc2c1)C(=O)Nc1ccc2c(O)c(N=Nc3cccc(C(=O)O)c3)c(S(=O)(=O)O)cc2c1"
  Experimental Target: "HIV integrase (Human immunodeficiency virus type 1 group M subtype B)"
  Category: "Condition met"
- Test Smiles: "O=C(Nc1ccc2c(O)c(N=Nc3cc(C(=O)O)ccc3C(=O)O)c(S(=O)(=O)O)cc2c1)C(=O)Nc1ccc2c(O)c(N=Nc3cc(C(=O)O)ccc3C(=O)O)c(S(=O)(=O)O)cc2c1"
  Experimental Target: "HIV integrase (Human immunodeficiency virus type 1 group M subtype B)"
  Category: "Condition met"
- Test Smiles: "COc1cc(C(=O)O)c(N=Nc2c(S(=O)(=O)O)cc3cc(NC(=O)Nc4ccc5c(O)c(N=Nc6c(C(=O)O)cc(OC)c(OC)c6OC)c(S(=O)(=O)O)cc5c4)ccc3c2O)c(OC)c1OC"
  Experimental Target: "HIV integrase (Human immunodeficiency virus type 1 group M subtype B)"
  Category: "Condition not met"
- Test Smiles: "O=C(O)Cc1ccc(N=Nc2c(S(=O)(=O)O)cc3cc(NC(=O)C(=O)Nc4ccc5c(O)c(N=Nc6ccc(CC(=O)O)cc6)c(S(=O)(=O)O)cc5c4)ccc3c2O)cc1"
  Experimental Target: "HIV integrase (Human immunodeficiency virus type 1 group M subtype B)"
  Category: "Condition met"

Let us examine a further case.
[ask] Decide: pIC50 of COc1cc(N=Nc2c(S(=O)(=O)O)cc3cc(NC(=O)Nc4ccc5c(O)c(N=Nc6cc(OC)c(OC)c(OC)c6)c(S(=O)(=O)O)cc5c4)ccc3c2O)cc(OC)c1OC >= 6?
[reply] Condition met

###

# Experimental Target: HIV reverse transcriptase (Human immunodeficiency virus type 1 group M subtype B, UniProt P03366)
# Measurement Description: Reverse transcriptase scintillation proximity assay (Example 4, Table 2)
# Assay type: biochemical
# Test Conditions: 10 μM inhibitor; relative to dimethyl sulfoxide = 100%; 3 min, 10 µM
Below is a list of entries, each paired with its recorded % RT activity remaining at 10 μM value.
Your answer should be a plain number; it is taken to be in %.

- Compound: "CCOC(=O)c1ccc(NC(=O)Nc2ccc3c(O)cc(S(=O)(=O)O)cc3c2)cc1 [Compound 28]"
  % RT activity remaining at 10 μM / %: 100

Lab note: next compound to report on.
[ask] // % RT activity remaining at 10 μM lookup, key: O=C(O)c1ccc(N=Nc2c(S(=O)(=O)O)cc3cc(NC(=O)c4ccc(C(=O)Nc5ccc6c(O)c(N=Nc7ccc(C(=O)O)cc7)c(S(=O)(=O)O)cc6c5)cc4)ccc3c2O)cc1 [Compound 162]
[reply] 5.9

###

# Experimental Target: UniProt:P03366
# Measurement Description: Reverse transcriptase scintillation proximity assay (Example 4, Table 2)
# Format: biochemical
# Test Conditions: 0.05 h, 10 μM inhibitor; relative to dimethyl sulfoxide = 100%; read-out: % RT activity remaining at 10 μM
Criterion: remaining activity at 10 µM strictly under 50%. Met: YES. Not met: NO.

Some solved cases for reference:
- Test Smiles: "O=C(Nc1ccc2c(O)c(N=Nc3cc(F)c(F)c(C(=O)O)c3F)c(S(=O)(=O)O)cc2c1)c1cccc(C(=O)Nc2ccc3c(O)c(N=Nc4cc(F)c(F)c(C(=O)O)c4F)c(S(=O)(=O)O)cc3c2)n1"
  Experimental Target: "UniProt:P03366"
  Category: "YES"
- Test Smiles: "O=C(Nc1ccc(S(=O)(=O)O)c2ccccc12)Nc1ccc(S(=O)(=O)O)c2ccccc12"
  Experimental Target: "UniProt:P03366"
  Category: "NO"
- Test Smiles: "O=C(Nc1ccc2ccc(S(=O)(=O)O)cc2c1)Nc1ccc2ccc(S(=O)(=O)O)cc2c1"
  Experimental Target: "UniProt:P03366"
  Category: "NO"
- Test Smiles: "COc1cc(N=Nc2c(S(=O)(=O)O)cc3cc(NC(=O)c4cc(O)cc(C(=O)Nc5ccc6c(O)c(N=Nc7cc(OC)c(OC)c(OC)c7C(=O)O)c(S(=O)(=O)O)cc6c5)n4)ccc3c2O)c(C(=O)O)c(OC)c1OC"
  Experimental Target: "UniProt:P03366"
  Category: "YES"
- Test Smiles: "COc1cc(N=Nc2c(S(=O)(=O)O)cc3cc(NC(=O)Nc4ccc5c(O)c(N=Nc6cc(OC)cc(OC)c6)c(S(=O)(=O)O)cc5c4)ccc3c2O)cc(OC)c1"
  Experimental Target: "UniProt:P03366"
  Category: "YES"
- Test Smiles: "O=C(O)/C=C/c1ccc(N=Nc2c(S(=O)(=O)O)cc3cc(NC(=O)c4cc(=O)cc(C(=O)Nc5ccc6c(O)c(N=Nc7ccc(/C=C/C(=O)O)cc7)c(S(=O)(=O)O)cc6c5)o4)ccc3c2O)cc1"
  Experimental Target: "UniProt:P03366"
  Category: "YES"

[ask] Please let me know if O=C(Nc1ccc2cc(S(=O)(=O)O)cc(S(=O)(=O)O)c2c1)Nc1ccc2cc(S(=O)(=O)O)cc(S(=O)(=O)O)c2c1 shows remaining activity at 10 µM below 50%.
[reply] NO

[ask] Decide: remaining activity at 10 µM of O=C(Nc1ccc2c(O)cccc2c1)Nc1ccc2c(O)cc(S(=O)(=O)O)cc2c1 strictly below 50%?
[reply] NO

[ask] Given O=C(Nc1ccc2c(O)c(N=Nc3cc(F)c(F)c(C(=O)O)c3F)c(S(=O)(=O)O)cc2c1)c1ccc(C(=O)Nc2ccc3c(O)c(N=Nc4cc(F)c(F)c(C(=O)O)c4F)c(S(=O)(=O)O)cc3c2)cc1 , is recorded remaining activity at 10 µM strictly lower than 50%?
[reply] YES

[ask] Check if remaining activity at 10 µM falls below 50% for O=C(O)/C=C/c1ccc(N=Nc2c(S(=O)(=O)O)cc3ccc(Nc4c(Nc5ccc6cc(S(=O)(=O)O)c(N=Nc7ccc(/C=C/C(=O)O)cc7)c(O)c6c5)c(=O)c4=O)cc3c2O)cc1 .
[reply] YES

[ask] Could you please tell me whether remaining activity at 10 µM recorded for CCOC(=O)c1cccc(N=Nc2c(S(=O)(=O)O)cc3cc(NC(=O)Nc4ccc5c(O)c(N=Nc6cccc(C(=O)OCC)c6)c(S(=O)(=O)O)cc5c4)ccc3c2O)c1 is less than 50%?
[reply] NO
